Task for the reader: assign each of the following binders its reported kon.
# test system: T1, human IL-6 (human, UniProt P05231 30-212)
# T1 construct: IL-6 flowed over captured antibodies
# T1 sequence (P05231 30-212 limits assumed): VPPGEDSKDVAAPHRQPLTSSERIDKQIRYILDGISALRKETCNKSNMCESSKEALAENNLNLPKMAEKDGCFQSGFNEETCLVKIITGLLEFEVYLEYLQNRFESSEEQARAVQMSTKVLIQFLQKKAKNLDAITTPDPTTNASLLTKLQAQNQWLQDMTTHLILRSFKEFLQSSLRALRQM
# assay protocol: SPR Biacore, supernatant Ab on Protein A chip, 37 C
Answers are plain numbers, in M⁻¹ s⁻¹.

• anti-IL-6 antibody, heavy chain T63R, G66D / light chain M32L, M50D, N52S, M88Q (antibody, IgG1, V domains shown, Full IgG1 (Expi293); VL = variant III) VH: EVQLVESGGGLVQPGGSLRLSCAASGFTFSPFAMSWVRQAPGKGLEWVAKISPGGSWTYYSDRVTDRFTFSLDTSKSTAYLQMNSLRAEDTAVYYCARQLWGYYALDIWGQGTLVTVSS VL: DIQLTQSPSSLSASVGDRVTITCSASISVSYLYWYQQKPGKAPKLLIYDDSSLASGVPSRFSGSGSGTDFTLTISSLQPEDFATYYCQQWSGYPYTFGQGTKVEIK = 1.92e+06
• anti-IL-6 antibody, heavy chain T63D, G66D / light chain M32L, M50D, N52S, M88Q (antibody, IgG1, V domains shown, Full IgG1 (Expi293); VL = variant III) VH: EVQLVESGGGLVQPGGSLRLSCAASGFTFSPFAMSWVRQAPGKGLEWVAKISPGGSWTYYSDDVTDRFTFSLDTSKSTAYLQMNSLRAEDTAVYYCARQLWGYYALDIWGQGTLVTVSS VL: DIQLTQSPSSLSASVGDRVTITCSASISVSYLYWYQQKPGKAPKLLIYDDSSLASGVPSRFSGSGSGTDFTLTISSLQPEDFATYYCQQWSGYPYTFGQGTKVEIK = 1.66e+06
• anti-IL-6 antibody, heavy chain S35F, G66D / light chain M32L, M50D, N52S, M88Q (antibody, IgG1, V domains shown, Full IgG1 (Expi293); VL = variant III) VH: EVQLVESGGGLVQPGGSLRLSCAASGFTFSPFAMFWVRQAPGKGLEWVAKISPGGSWTYYSDTVTDRFTFSLDTSKSTAYLQMNSLRAEDTAVYYCARQLWGYYALDIWGQGTLVTVSS VL: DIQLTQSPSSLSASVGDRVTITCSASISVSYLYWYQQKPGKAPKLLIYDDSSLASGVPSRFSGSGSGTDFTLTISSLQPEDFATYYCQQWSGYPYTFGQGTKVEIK = 1.53e+06

Report kon for each item below.
1. anti-IL-6 antibody, heavy chain T65G, G66D / light chain M32L, M50D, N52S, M88Q (antibody, IgG1, V domains shown, Full IgG1 (Expi293); VL = variant III) VH: EVQLVESGGGLVQPGGSLRLSCAASGFTFSPFAMSWVRQAPGKGLEWVAKISPGGSWTYYSDTVGDRFTFSLDTSKSTAYLQMNSLRAEDTAVYYCARQLWGYYALDIWGQGTLVTVSS VL: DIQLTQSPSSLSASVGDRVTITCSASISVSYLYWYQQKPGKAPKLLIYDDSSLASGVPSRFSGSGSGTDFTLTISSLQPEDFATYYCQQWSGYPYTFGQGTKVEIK
2. anti-IL-6 antibody, heavy chain I51W, G66D / light chain M32L, M50D, N52S, M88Q (antibody, IgG1, V domains shown, Full IgG1 (Expi293); VL = variant III) VH: EVQLVESGGGLVQPGGSLRLSCAASGFTFSPFAMSWVRQAPGKGLEWVAKWSPGGSWTYYSDTVTDRFTFSLDTSKSTAYLQMNSLRAEDTAVYYCARQLWGYYALDIWGQGTLVTVSS VL: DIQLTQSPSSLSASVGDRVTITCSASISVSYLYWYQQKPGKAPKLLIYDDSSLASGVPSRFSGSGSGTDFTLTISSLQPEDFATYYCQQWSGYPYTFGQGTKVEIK
3. anti-IL-6 antibody, heavy chain T65Y, G66D / light chain M32L, M50D, N52S, M88Q (antibody, IgG1, V domains shown, Full IgG1 (Expi293); VL = variant III) VH: EVQLVESGGGLVQPGGSLRLSCAASGFTFSPFAMSWVRQAPGKGLEWVAKISPGGSWTYYSDTVYDRFTFSLDTSKSTAYLQMNSLRAEDTAVYYCARQLWGYYALDIWGQGTLVTVSS VL: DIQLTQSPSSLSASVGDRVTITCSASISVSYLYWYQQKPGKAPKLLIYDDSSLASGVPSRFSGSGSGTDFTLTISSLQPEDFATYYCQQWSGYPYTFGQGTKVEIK
4. anti-IL-6 antibody, heavy chain S35Y, G66D / light chain M32L, M50D, N52S, M88Q (antibody, IgG1, V domains shown, Full IgG1 (Expi293); VL = variant III) VH: EVQLVESGGGLVQPGGSLRLSCAASGFTFSPFAMYWVRQAPGKGLEWVAKISPGGSWTYYSDTVTDRFTFSLDTSKSTAYLQMNSLRAEDTAVYYCARQLWGYYALDIWGQGTLVTVSS VL: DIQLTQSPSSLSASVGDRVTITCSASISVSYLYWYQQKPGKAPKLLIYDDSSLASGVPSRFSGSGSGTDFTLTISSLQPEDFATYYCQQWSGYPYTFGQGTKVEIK
5. anti-IL-6 antibody, heavy chain G66D / light chain M32L, M50D, N52S, M88Q (antibody, IgG1, V domains shown, Full IgG1 (Expi293); VL = variant III) VH: EVQLVESGGGLVQPGGSLRLSCAASGFTFSPFAMSWVRQAPGKGLEWVAKISPGGSWTYYSDTVTDRFTFSLDTSKSTAYLQMNSLRAEDTAVYYCARQLWGYYALDIWGQGTLVTVSS VL: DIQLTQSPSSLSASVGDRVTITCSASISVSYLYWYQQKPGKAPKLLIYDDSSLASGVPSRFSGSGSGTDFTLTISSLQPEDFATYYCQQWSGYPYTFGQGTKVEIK
6. anti-IL-6 antibody, heavy chain I51V, G66D / light chain M32L, M50D, N52S, M88Q (antibody, IgG1, V domains shown, Full IgG1 (Expi293); VL = variant III) VH: EVQLVESGGGLVQPGGSLRLSCAASGFTFSPFAMSWVRQAPGKGLEWVAKVSPGGSWTYYSDTVTDRFTFSLDTSKSTAYLQMNSLRAEDTAVYYCARQLWGYYALDIWGQGTLVTVSS VL: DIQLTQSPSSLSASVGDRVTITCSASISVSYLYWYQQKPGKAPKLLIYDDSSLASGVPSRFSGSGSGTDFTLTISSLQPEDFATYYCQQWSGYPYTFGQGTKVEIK

Output:
1: 1.53e+06; 2: 791000; 3: 1.55e+06; 4: 1.18e+06; 5: 1.63e+06; 6: 1.76e+06

Task: Complete the entry with kon for anti-IL-6 antibody, heavy chain S35D, G66D / light chain M32L, M50D, N52S, M88Q (antibody, IgG1, V domains shown, Full IgG1 (Expi293); VL = variant III) VH: EVQLVESGGGLVQPGGSLRLSCAASGFTFSPFAMDWVRQAPGKGLEWVAKISPGGSWTYYSDTVTDRFTFSLDTSKSTAYLQMNSLRAEDTAVYYCARQLWGYYALDIWGQGTLVTVSS VL: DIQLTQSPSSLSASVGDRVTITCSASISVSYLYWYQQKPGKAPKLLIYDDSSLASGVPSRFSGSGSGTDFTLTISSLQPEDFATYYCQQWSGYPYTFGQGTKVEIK
Output: 2.35e+06
